measured_on: cyno MSLN (Macaca fascicularis)
measurement_protocol: BLI (Octet), bsAb in 1+1 Fab-scFv-Fc format
assay_readout: kon (M⁻¹ s⁻¹)
Provide only the numeric value, understood in M⁻¹ s⁻¹.

Check out these entries, answers already filled in.
Ask: Read off the recorded kon for XENP32553 (bispecific antibody, part only; not given: anti-CD3 scFv-Fc arm, constant regions, V domains shown, not shown: another chain or arm of the molecule; a dimerising Fc or GST; small tags and cut ends) VH: QVQLVQSGAEVKKPGASVKVSCKASGYTFTSYWMHWVRQAPGQGLEWMGMINPNSDNTIYYEKFQGRVTMTVDKSISTAYMELSRLRSDDTAVYYCAIIITPVVPKFDYWGQGTLVTVSS VL: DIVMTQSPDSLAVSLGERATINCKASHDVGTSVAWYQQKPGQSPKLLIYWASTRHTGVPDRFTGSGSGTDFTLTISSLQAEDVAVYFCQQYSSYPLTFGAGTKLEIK
Result: 575000

Ask: Read off the recorded kon for XENP32560 (bispecific antibody, part only; not given: anti-CD3 scFv-Fc arm, constant regions, V domains shown, not shown: another chain or arm of the molecule; a dimerising Fc or GST; small tags and cut ends) VH: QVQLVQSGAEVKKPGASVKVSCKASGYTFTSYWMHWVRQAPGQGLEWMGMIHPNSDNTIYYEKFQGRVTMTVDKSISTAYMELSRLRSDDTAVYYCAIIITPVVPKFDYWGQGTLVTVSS VL: DIVMTQSPDSLAVSLGERATINCKASQDVGTSVAWYQQKPGQSPKLLIYWASTRHTGVPDRFTGSGSGTDFTLTISSLQAEDVAVYFCQQYSSYPLTFGAGTKLEIK
Result: 634000

Ask: Read off the recorded kon for XENP32570 (bispecific antibody, part only; not given: anti-CD3 scFv-Fc arm, constant regions, V domains shown, not shown: another chain or arm of the molecule; a dimerising Fc or GST; small tags and cut ends) VH: QVQLVQSGAEVKKPGASVKVSCKASGYTFTSYWMHWVRQAPGQGLEWMGMIHPNSGNTIYYEKFQGRVTMTVDKSISTAYMELSRLRSDDTAVYYCAIIITPVVPKFDYWGQGTLVTVSS VL: DIVMTQSPDSLAVSLGERATINCKASHSVGTSVAWYQQKPGQSPKLLIYWASTRHTGVPDRFTGSGSGTDFTLTISSLQAEDVAVYFCQQYSSYPLTFGAGTKLEIK
Result: 676000

Ask: Read off the recorded kon for XENP32569 (bispecific antibody, part only; not given: anti-CD3 scFv-Fc arm, constant regions, V domains shown, not shown: another chain or arm of the molecule; a dimerising Fc or GST; small tags and cut ends) VH: QVQLVQSGAEVKKPGASVKVSCKASGYTFTSYWMHWVRQAPGQGLEWMGMIHPQSDNTIYYEKFQGRVTMTVDKSISTAYMELSRLRSDDTAVYYCAIIITPVVPKFDYWGQGTLVTVSS VL: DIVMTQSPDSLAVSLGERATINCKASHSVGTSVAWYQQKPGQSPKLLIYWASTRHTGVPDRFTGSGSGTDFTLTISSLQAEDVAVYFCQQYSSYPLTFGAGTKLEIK
Result: 660000

Now examine the next entry.
Ask: Read off the recorded kon for XENP32551 (bispecific antibody, part only; not given: anti-CD3 scFv-Fc arm, constant regions, V domains shown, not shown: another chain or arm of the molecule; a dimerising Fc or GST; small tags and cut ends) VH: QVQLVQSGAEVKKPGASVKVSCKASGYTFTSYYMHWVRQAPGQGLEWMGMIHPNSDNTIYYEKFQGRVTMTVDKSISTAYMELSRLRSDDTAVYYCAIIITPVVPKFDYWGQGTLVTVSS VL: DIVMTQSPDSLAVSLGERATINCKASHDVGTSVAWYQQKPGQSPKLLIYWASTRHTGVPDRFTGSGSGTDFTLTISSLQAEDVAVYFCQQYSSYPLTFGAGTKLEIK
Result: 495000

All figures here come from patent US20230340128A1.
